# Read-out: matrix metalloproteinase-10 (MMP10), MMP10 (gene 4319)
# Procedure Details: LTEA_HepaRG_MMP10: Life Technologies and Expression Analysis (LTEA) Assay for matrix metalloproteinase-10 (MMP10) using HepaRG (AID 2283517)
# Experimental Parameters: mRNA level, 48 h; actives raise or lower the signal
# Protocol: LTEA_HepaRG is a cell based, multiplexed-readout assay that uses HepaRG, a human liver cell line, with measurements taken at 48 hours after chemical dosing on a 96-well plate.LTEA_HepaRG_MMP10 is one of 102 assay component(s) measured in the LTEA HepaRG cell culture assay. It is a marker of Fibrosis.Data from the assay component LTEA_HepaRG_MMP10 was analyzed into 1 endpoint. […]
Activity calls are given as the source filed them. The calls were made as follows: active = hit-call score of the fitted dose curve at least 0.9, where 1 is the maximum; inactive = score below 0.9.
Parameter call: string, one of YES = active, NO = inactive

Completed entries (count: 2):
# Molecule, Label Class
rows = [
    ("OC(c1ccc(Cl)cc1)(c1cncnc1)c1ccccc1Cl (stereo unspecified)", "YES"),
    ("CCOc1cc(Oc2ccc(C(F)(F)F)cc2Cl)ccc1[N+](=O)[O-]", "YES"),
]

Lab note: next molecule to report on.
Q: Give the logged outcome of this assay for the following molecule: `CNC(=O)ON=CC(C)(C)SC`
Ans: NO
